- Test system: Mycobacterium kansasii
- PROTOCOL_NOTES: Antimycobacterial activity against Mycobacterium kansasii My 6509/96 clinical isolate after 14 days by micromethod
- Type: functional
- CONDITION_SUMMARY: My 6509/96, 336 h
Met if MIC is below 100 µM. Not met if not; exact matches included in Not met.

>>> discrete_label("COc1cc(Cl)ccc1C(=S)Nc1cccc(C(F)(F)F)c1")
"Met"
>>> discrete_label("COc1cc(Cl)ccc1C(=O)Nc1ccc([N+](=O)[O-])cc1")
"Not met"
>>> discrete_label("NNC(=O)c1ccncc1 [ISONIAZID]")
"Met"
>>> discrete_label("COc1cc(Cl)ccc1C(=S)Nc1cccc(Cl)c1")
"Met"
>>> discrete_label("COc1ccc(Cl)cc1C(=O)Nc1ccc([N+](=O)[O-])cc1")
"Not met"
>>> discrete_label("COc1cc(Cl)ccc1C(=O)Nc1ccc(Cl)cc1")
"Met"
>>> discrete_label("COc1ccc(Cl)cc1C(=S)Nc1ccc([N+](=O)[O-])cc1")
"Not met"
>>> discrete_label("COc1ccc(Cl)cc1C(=S)Nc1ccc(Cl)cc1")
"Met"
>>> discrete_label("COc1cc(Cl)ccc1C(=O)Nc1ccc(C(F)(F)F)cc1")
"Not met"
>>> discrete_label("COc1cc(Cl)ccc1C(=S)Nc1ccc(Cl)cc1")
"Met"
>>> discrete_label("COc1cc(Cl)ccc1C(=S)Nc1ccc(Cl)c(Cl)c1")
"Met"
>>> discrete_label("COc1cc(Cl)ccc1C(=O)Nc1cccc(C(F)(F)F)c1")
"Not met"

Data credit: ChEMBL document CHEMBL2086318
